- ASSAY_OVERVIEW: qHTS to identify inhibitors of the type 1 interferon - major histocompatibility complex class I in skeletal muscle: primary screen against the NCATS LOPAC collection (AID 1347405);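 also: human myoblasts with HiBiT tag on endogenous HLA-B stimulated by IFN-beta; lytic HiBiT luminescence reporting HLA-B protein level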
- RECORDED_CONDITIONS: iHSKM muscle cells, IFN-b-induced MHC-I HiBiT luminescence, 24 h; series mostly up to 45.9 µM
Records with an inconclusive call do not appear. The source made the active and inactive calls. Calls follow the shape of the dose curve; as a rule, active = well fitted inhibition curve with a large enough effect; inconclusive = small, poorly fitted or top-dose-only effect; inactive = flat fitted curve, though single readings scatter.
QUANTITY: outcome

{"MOLECULE": "N[C@H](CO)C(=O)O", "ASSAY_VALUE": "inactive"}
{"MOLECULE": "N[C@@H](Cc1cnc[nH]1)C(=O)O", "ASSAY_VALUE": "inactive"}
{"MOLECULE": "CNCCC(Oc1ccccc1C)c1ccccc1 (configuration not stated)", "ASSAY_VALUE": "inactive"}
{"MOLECULE": "CCCn1c(=O)[nH]c(=O)c2[nH]cnc21", "ASSAY_VALUE": "inactive"}
{"MOLECULE": "O=C1CCC(c2ccc(-n3ccnc3)cc2)=NN1", "ASSAY_VALUE": "inactive"}
{"MOLECULE": "C[N+]1(CCCCC[N+]2(C)CCCC2)CCCC1", "ASSAY_VALUE": "inactive"}
{"MOLECULE": "CC(C)COC(=O)OCN1C(=O)CN(CCN2CC(=O)N(COC(=O)OCC(C)C)C(=O)C2)CC1=O", "ASSAY_VALUE": "inactive"}
